Molecular target: T1, human ferroportin (SLC40A1) fused in frame with GFP, stably expressed in HEK293 cells (human, UniProt Q9NP59 1-571)
T1 sequence (looked up): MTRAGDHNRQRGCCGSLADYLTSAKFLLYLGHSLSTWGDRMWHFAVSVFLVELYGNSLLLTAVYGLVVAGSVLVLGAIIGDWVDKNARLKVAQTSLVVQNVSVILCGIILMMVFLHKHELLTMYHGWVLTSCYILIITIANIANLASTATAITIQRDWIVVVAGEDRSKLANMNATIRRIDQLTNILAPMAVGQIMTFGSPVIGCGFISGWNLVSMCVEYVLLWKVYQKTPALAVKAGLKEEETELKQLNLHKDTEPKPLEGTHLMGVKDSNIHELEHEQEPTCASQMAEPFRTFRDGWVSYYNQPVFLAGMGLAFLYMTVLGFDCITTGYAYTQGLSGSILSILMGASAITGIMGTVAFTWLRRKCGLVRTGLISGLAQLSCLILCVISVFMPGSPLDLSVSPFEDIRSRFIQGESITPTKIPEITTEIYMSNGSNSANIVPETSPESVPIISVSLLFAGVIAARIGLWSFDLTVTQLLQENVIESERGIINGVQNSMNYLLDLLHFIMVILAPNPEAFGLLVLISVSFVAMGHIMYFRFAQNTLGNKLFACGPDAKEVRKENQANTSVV
Assay: cell-based or functional assay
Starred links: 1 amine or outer side, 2 acyl side, 3 side chain; linkers in the order of their positions; H or OH if unused. Positions of bridges follow the written chain, without caps; N, C: chain ends. Non-standard residues stand in square brackets, D forms with d. Groups on a side chain read outwards from the residue. *: point of attachment. C18 diacid = O=C(O)CCCCCCCCCCCCCCCCC(=O)*; Dip = N[C@H](C(=O)O)C(c1ccccc1)c1ccccc1; γGlu = O=C(O)[C@H](CCC(=O)[*:2])N[*:1]; Stearoyl = CCCCCCCCCCCCCCCCCC(=O)*; Palmitoyl = CCCCCCCCCCCCCCCC(=O)*; NMeF = CN[C@@H](Cc1ccccc1)C(=O)O; β3hF = N[C@H](CC(=O)O)Cc1ccccc1; Isovaleryl = CC(C)CC(=O)*; AEEA = NCCOCCOCC(=O)O; Ahx = NCCCCCC(=O)O
Okay, here is how we bin by FPN EC50: class A (below 70 nM), class B (70 nM to below 300 nM), class C (300 nM or more)

Just checking, what class would you give Isovaleryl-ETH[Dip]P[dK]I[dK][β3hF]K([Ahx-Palmitoyl])-NH2 (SMILES CCCCCCCCCCCCCCCC(=O)NCCCCCC(=O)NCCCC[C@H](NC(=O)C[C@H](Cc1ccccc1)NC(=O)[C@@H](CCCCN)NC(=O)[C@@H](NC(=O)[C@@H](CCCCN)NC(=O)[C@@H]1CCCN1C(=O)[C@@H](NC(=O)[C@H](Cc1c[nH]cn1)NC(=O)[C@@H](NC(=O)[C@H](CCC(=O)O)NC(=O)CC(C)C)[C@@H](C)O)C(c1ccccc1)c1ccccc1)[C@@H](C)CC)C(N)=O) [Isovaleric Acid-E-T-H-[Dpa]-P-[(D)Lys]-I-[(D)Lys]-[bhPhe]-[Lys(Ahx_Palm)]-NH2] here?
class C

Class? Entry: {(3-Trifluoromethyl)butyric acid}-ETH[Dip]PIIK(Ac)[β3hF]-NH2 [[(3-Trifluoromethyl)butyric acid]-E-T-H-[Dpa]-P-I-I-[Lys(Ac)]-[bhPhe]-NH2]
class C

Bin? Isovaleryl-ETHFPAIK([γGlu-Palmitoyl])FEPRSKGAK-NH2 [Isovaleric Acid-E-T-H-F-P-A-I-[Lys(IsoGlu_Palm)]-F-E-P-R-S-K-G-A-K-NH2]
class B

Where would Isovaleryl-ETH[Dip]PAK([Ahx-Palmitoyl])-NH2 (SMILES CCCCCCCCCCCCCCCC(=O)NCCCCCC(=O)NCCCC[C@H](NC(=O)[C@H](C)NC(=O)[C@@H]1CCCN1C(=O)[C@@H](NC(=O)[C@H](Cc1c[nH]cn1)NC(=O)[C@@H](NC(=O)[C@H](CCC(=O)O)NC(=O)CC(C)C)[C@@H](C)O)C(c1ccccc1)c1ccccc1)C(N)=O) [Isovaleric Acid-E-T-H-[Dpa]-P-A-[Lys(Ahx_Palm)]-NH2] land among the classes by reported FPN EC50?
class B

Returns: class label. Input: Isovaleryl-ETH[Dip]PAI[dK][β3hF]K([Ahx-Palmitoyl])[dK]-NH2 (SMILES CCCCCCCCCCCCCCCC(=O)NCCCCCC(=O)NCCCC[C@H](NC(=O)C[C@H](Cc1ccccc1)NC(=O)[C@@H](CCCCN)NC(=O)[C@@H](NC(=O)[C@H](C)NC(=O)[C@@H]1CCCN1C(=O)[C@@H](NC(=O)[C@H](Cc1c[nH]cn1)NC(=O)[C@@H](NC(=O)[C@H](CCC(=O)O)NC(=O)CC(C)C)[C@@H](C)O)C(c1ccccc1)c1ccccc1)[C@@H](C)CC)C(=O)N[C@H](CCCCN)C(N)=O) [Isovaleric Acid-E-T-H-[Dpa]-P-A-I-[(D)Lys]-[bhPhe]-[Lys(Ahx_Palm)]-[(D)Lys]-NH2]
class A

Class label required: Isovaleryl-ETH[Dip]PAIK([Ahx-Stearoyl])[β3hF]-NH2 [Isovaleric Acid-E-T-H-[Dpa]-P-A-I-[Lys(Ahx_C18)]-[bhPhe]-NH2]
class B

GET /class?item= Isovaleryl-LTH[Dip]PAIK([AEEA-AEEA-Ahx-C18 diacid])[β3hF][dK]-NH2 [Isovaleric Acid-L-T-H-[Dpa]-P-A-I-[Lys(1PEG2_1PEG2_Ahx_C18_Diacid)]-[bhPhe]-[(D)Lys]-NH2]
class A

Category of Isovaleryl-ETH[Dip]PAI[dK]AK([Ahx-Palmitoyl])[dK]A-NH2 (SMILES CCCCCCCCCCCCCCCC(=O)NCCCCCC(=O)NCCCC[C@H](NC(=O)[C@H](C)NC(=O)[C@@H](CCCCN)NC(=O)[C@@H](NC(=O)[C@H](C)NC(=O)[C@@H]1CCCN1C(=O)[C@@H](NC(=O)[C@H](Cc1c[nH]cn1)NC(=O)[C@@H](NC(=O)[C@H](CCC(=O)O)NC(=O)CC(C)C)[C@@H](C)O)C(c1ccccc1)c1ccccc1)[C@@H](C)CC)C(=O)N[C@H](CCCCN)C(=O)N[C@@H](C)C(N)=O) [Isovaleric Acid-E-T-H-[Dpa]-P-A-I-[(D)Lys]-A-[Lys(Ahx_Palm)]-[(D)Lys]-A-NH2] , please.
class A

Sort Isovaleryl-ETH[Dip]PAIK([Ahx-Palmitoyl])[N‑(CH2CH2Ph)Gly]-NH2 [Isovaleric Acid-E-T-H-[Dpa]-P-A-I-[Lys(Ahx_Palm)]-[N-(CH2CH2Ph)Gly]-NH2] into one of the categories.
class A

Class? Entry: Isovaleryl-ATHEPKIK([Ahx-Palmitoyl])[β3hF]R-NH2 (lactam 4-6; SMILES CCCCCCCCCCCCCCCC(=O)NCCCCCC(=O)NCCCC[C@H](NC(=O)[C@@H](NC(=O)[C@@H]1CCCCNC(=O)CC[C@H](NC(=O)[C@H](Cc2c[nH]cn2)NC(=O)[C@@H](NC(=O)[C@H](C)NC(=O)CC(C)C)[C@@H](C)O)C(=O)N2CCC[C@H]2C(=O)N1)[C@@H](C)CC)C(=O)N[C@H](CC(=O)N[C@@H](CCCNC(=N)N)C(N)=O)Cc1ccccc1) [Isovaleric Acid-A-T-H-E-P-K-I-[Lys(Ahx_Palm)]-[bhPhe]-R-NH2; (E and K cyclized)]
class C

Band for Isovaleryl-LTH[Dip]PAIK([Ahx-Palmitoyl])[NMeF]-NH2 (SMILES CCCCCCCCCCCCCCCC(=O)NCCCCCC(=O)NCCCC[C@H](NC(=O)[C@@H](NC(=O)[C@H](C)NC(=O)[C@@H]1CCCN1C(=O)[C@@H](NC(=O)[C@H](Cc1c[nH]cn1)NC(=O)[C@@H](NC(=O)[C@H](CC(C)C)NC(=O)CC(C)C)[C@@H](C)O)C(c1ccccc1)c1ccccc1)[C@@H](C)CC)C(=O)N(C)[C@@H](Cc1ccccc1)C(N)=O) [Isovaleric Acid-L-T-H-[Dpa]-P-A-I-[Lys(Ahx_Palm)]-[(Me)Phe]-NH2] ?
class C

Source of measurements: patent US20240066131A1
